- Test system: HCC-2998 colon
- METHOD_DESCRIPTION: NCI-60 one-dose screen, 48 h
- CONDITIONS: 10 µM unless noted
- Experimental: Growth inhibition of the HCC-2998 human tumor cell line is measured as a screen for anti-cancer activity. Cells are grown in 96 well plates and exposed to the test compound for 48 hours. Compounds are tested at a single concentration, which is 10^-5 M for most compounds. The reported endpoint is percent growth (GI% or GIPRCNT), where numbers from 0 - 100% represent growth inhibition, and numbers from -100% - 0 represent cell death. For example, a value of 40 represents 60% growth inhibition. […]
This is part of a sample that, as a whole, favours compounds with a hit. Of some 83,000 tested, about 20% had one in any assay. Active and inactive are the calls of the source. The calls were made as follows: active = growth percent below 10; inactive = the rest.
Outcomes: active, inactive

COMPOUND	TARGET_OR_TEST_SYSTEM	GROUP
COc1ccc(/C(C)=C(\c2ccc(Cl)cc2)c2ccc(OCCN)cc2)cc1	HCC-2998 colon	inactive
CCN1C(=O)N(CC)C2SC(N/N=C/C=C/c3ccccc3OC)=NC21 (stereo not given)	HCC-2998 colon	active
Oc1ccc(CSc2nnc(-c3ccc(Cl)cc3)o2)c2cccnc12	HCC-2998 colon	inactive
COc1cnc2c(c1)C(=O)c1c-2n(CCCn2ccnc2)c(=O)c2cc(OC)c(OC)cc12	HCC-2998 colon	inactive
CC(C)=CCc1c2c(c(O)c3c1O[C@]14C(=C[C@@H]5C[C@H]1C(C)(C)O[C@@]4(C/C=C(/C)C(=O)O)C5=O)C3=O)CC(O)C(C)(C)O2 (stereo not given in full)	HCC-2998 colon	active
